- targetEntity: Tyrosine-protein phosphatase non-receptor type 4 (Homo sapiens, UniProt P29074)
- Sequence (P29074 whole entry, the tested form may be a part): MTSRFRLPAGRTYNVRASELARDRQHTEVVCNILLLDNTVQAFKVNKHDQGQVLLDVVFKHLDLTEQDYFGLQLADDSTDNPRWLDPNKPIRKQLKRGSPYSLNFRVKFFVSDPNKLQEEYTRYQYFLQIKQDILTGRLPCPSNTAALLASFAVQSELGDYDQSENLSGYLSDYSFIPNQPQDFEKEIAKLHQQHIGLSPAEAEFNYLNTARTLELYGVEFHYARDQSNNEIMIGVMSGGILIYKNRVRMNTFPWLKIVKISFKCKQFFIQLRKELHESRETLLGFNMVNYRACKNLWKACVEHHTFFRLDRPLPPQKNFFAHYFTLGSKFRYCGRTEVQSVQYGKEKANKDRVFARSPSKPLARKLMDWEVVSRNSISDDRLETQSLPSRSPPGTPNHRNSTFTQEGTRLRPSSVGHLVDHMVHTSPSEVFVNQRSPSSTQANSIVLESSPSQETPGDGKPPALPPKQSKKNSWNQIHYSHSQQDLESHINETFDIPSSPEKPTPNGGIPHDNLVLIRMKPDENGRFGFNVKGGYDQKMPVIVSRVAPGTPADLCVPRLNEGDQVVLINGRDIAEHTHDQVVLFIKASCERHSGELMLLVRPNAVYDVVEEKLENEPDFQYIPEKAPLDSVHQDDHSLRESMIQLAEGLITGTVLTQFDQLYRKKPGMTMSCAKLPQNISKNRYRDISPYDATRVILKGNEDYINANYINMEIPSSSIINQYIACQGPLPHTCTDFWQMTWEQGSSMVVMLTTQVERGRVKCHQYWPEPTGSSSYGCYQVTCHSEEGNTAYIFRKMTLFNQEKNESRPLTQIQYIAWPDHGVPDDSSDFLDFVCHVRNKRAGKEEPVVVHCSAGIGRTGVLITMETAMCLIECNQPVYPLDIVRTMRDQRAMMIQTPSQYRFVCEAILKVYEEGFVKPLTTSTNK
- experimentSummary: Inhibition of recombinant human N-terminal GST-tagged MEG1 catalytic domain (637 to 926 residues) expressed in Escherichia coli using […] as substrate preincubated with substrate for 5 mins followed by enzyme addition
List of IC50 values.
Write the number in µM without appending the unit.

Look over these answered cases.
O=P(O)(Cc1cc2c(O)c(c1)S(=O)(=O)c1cc(CP(=O)(O)c3ccccc3)cc(c1O)S(=O)(=O)c1cc(CP(=O)(O)c3ccccc3)cc(c1O)S(=O)(=O)c1cc(CP(=O)(O)c3ccccc3)cc(c1O)S2(=O)=O)c1ccccc1: 0.18
O=P(O)(Cc1cc2c(O)c(c1)Cc1cc(CP(=O)(O)c3ccccc3)cc(c1O)Cc1cc(CP(=O)(O)c3ccccc3)cc(c1O)Cc1cc(CP(=O)(O)c3ccccc3)cc(c1O)C2)c1ccccc1: 30

Attention now turns to another entry.
## Task Provide IC50, recorded with Tyrosine-protein phosphatase non-receptor type 4 (Homo sapiens, UniProt P29074), of `O=P(O)(Cc1cc2c(O)c(c1)Sc1cc(CP(=O)(O)c3ccccc3)cc(c1O)Sc1cc(CP(=O)(O)c3ccccc3)cc(c1O)Sc1cc(CP(=O)(O)c3ccccc3)cc(c1O)S2)c1ccccc1`
## Result 5.4
